# Species on record: Cavia porcellus
# assay: Compound was tested for the agonistic activity on guinea pig ileum
# Type: functional
assay.endpoint: EC50 (nM)
Dear colleague, please return just the value in nM, with no unit written.

Data request, read-out EC50, for COc1noc2c1CN(C)CC2 830

###

# assay: Muscarinic agonist index (Ki in [3H]QNB / Ki in [3H]-OXO-M) was determined
# Type: functional
# Criterion met = M-agonist index below 300 (exclusive); Criterion not met = M-agonist index at/above 300

Cn1oc2c(c1=O)C[S+](C)CC2.[I-] (stereo not drawn); Criterion met
COc1noc2c1C[N+](C)(C)CC2.[I-]; Criterion met

Shift focus to the following entry.
Please indicate whether the reported M-agonist index of C#CCOc1noc2c1C[S+](C)CC2.[I-] (stereo not drawn) is strictly below 300. Criterion met

###

# target.system: Muscarinic acetylcholine receptor M1 (Rattus norvegicus)
# Sequence (P08482 whole entry): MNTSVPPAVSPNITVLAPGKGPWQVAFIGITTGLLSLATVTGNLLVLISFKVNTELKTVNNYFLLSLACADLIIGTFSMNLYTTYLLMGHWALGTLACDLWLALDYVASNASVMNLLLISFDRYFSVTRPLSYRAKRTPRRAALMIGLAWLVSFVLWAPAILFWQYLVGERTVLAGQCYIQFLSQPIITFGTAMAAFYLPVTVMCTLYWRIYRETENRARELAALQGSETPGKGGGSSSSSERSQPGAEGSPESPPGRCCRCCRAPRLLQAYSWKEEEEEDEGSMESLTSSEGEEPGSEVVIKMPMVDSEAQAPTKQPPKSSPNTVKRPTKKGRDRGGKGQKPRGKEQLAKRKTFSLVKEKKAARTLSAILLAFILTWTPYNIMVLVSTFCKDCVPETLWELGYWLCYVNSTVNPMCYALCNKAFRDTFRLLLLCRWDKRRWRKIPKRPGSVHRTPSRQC
assay.endpoint: pIC50
A value of pIC50 is the negative decimal logarithm of a concentration given in moles per litre.

COc1noc2c1C[S+](C)CC2.[I-] (centres undefined); 5.39
COC(=O)C1=CCC[S+](C)C1.[I-] (centres undefined) [SULFOARECOLINE IODIDE]; 5.59

Here is another compound to look at.
Param item = Cn1oc2c(c1=O)C[S+](C)CC2.[I-] (centres undefined) ; retrieve measured pIC50. 4.52

###

# target.system: Muscarinic acetylcholine receptor
# assay: Inhibition of [3H]oxotremorine-M binding to rat brain membrane Muscarinic acetylcholine receptor
Output class 1 for records whose IC50 is lower than 0.03 µM, class 0 for records at or above 0.03 µM.

Is IC50 strictly under 0.03 µM for the entry COc1noc2c1CSCC2 ? class 0

Query COc1noc2c1C[S+](C)CC2.[I-] (stereo unspecified) next class 1

What would you report for C#CCOc1noc2c1C[S+](C)CC2.[I-] (stereo unspecified) ? class 1

###

# assay: M-1 selectivity expressed as M-2/M-1 index (Ki in [3H]-QNB / Ki in [3H]PZ) was determined
Listed next: entries and their corresponding Ratio.
When you answer, write just the number.

Sample answers from the record:
CCOc1noc2c1C[S+](C)CC2.[I-] (stereo not drawn); 1.2
COc1noc2c1C[S+](C)CC2.[I-] (stereo not drawn); 0.05
COC(=O)C1=CCC[S+](C)C1.[I-] (stereo not drawn) [SULFOARECOLINE IODIDE]; 0.12

Reported Ratio for CCOC(=O)C1=CCC[S+](C)C1.[Cl-] (stereo not drawn) : what is it? 1.2

Please do the same for C#CCOc1noc2c1C[S+](C)CC2.[I-] (stereo not drawn) as well. 0.22

CC(C)Oc1noc2c1C[S+](C)CC2.[I-] (stereo not drawn) , same question. 0.53

Item: Cn1oc2c(c1=O)C[S+](C)CC2.[I-] (stereo not drawn) 0.04

Then what about the molecule COc1noc2c1C[N+](C)(C)CC2.[I-] ? 0.42

###

Measured IC50, listed per entry for reference.
# target.system: Muscarinic acetylcholine receptor M2 (Rattus norvegicus, UniProt P10980)
# assay: Inhibition of [3H]quinuclidinyl benzilate binding to Muscarinic acetylcholine receptor M2 of rat heart

Cn1oc2c(c1=O)CSCC2; > 1000 µM

Find the recorded IC50 belonging to COc1noc2c1C[S+](C)CC2.[I-] (stereo unspecified) and report it. 1.6 µM

Now consider CCOc1noc2c1C[S+](C)CC2.[I-] (stereo unspecified) and answer again. 4.9 µM

Another: COc1noc2c1CN(C)CC2 16 µM

Entry COc1noc2c1CSCC2 please > 1000 µM

Follow-up entry: CC(C)Oc1noc2c1C[S+](C)CC2.[I-] (stereo unspecified) 1.8 µM

###

# target.system: Muscarinic acetylcholine receptor M2 (Rattus norvegicus, UniProt P10980)
# Sequence (P10980 whole entry): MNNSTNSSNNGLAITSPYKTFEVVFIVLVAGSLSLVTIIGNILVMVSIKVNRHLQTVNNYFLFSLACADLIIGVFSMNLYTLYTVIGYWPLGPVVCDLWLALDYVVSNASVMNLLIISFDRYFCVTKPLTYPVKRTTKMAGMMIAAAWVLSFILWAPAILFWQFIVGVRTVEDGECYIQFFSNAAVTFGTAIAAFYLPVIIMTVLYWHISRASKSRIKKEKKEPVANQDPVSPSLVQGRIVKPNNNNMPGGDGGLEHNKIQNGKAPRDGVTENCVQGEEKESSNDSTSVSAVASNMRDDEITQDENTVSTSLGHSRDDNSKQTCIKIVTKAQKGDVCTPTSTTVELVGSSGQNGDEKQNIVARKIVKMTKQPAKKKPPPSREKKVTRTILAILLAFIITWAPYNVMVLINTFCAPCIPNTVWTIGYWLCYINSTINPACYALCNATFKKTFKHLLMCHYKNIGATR
# assay: Inhibition of [3H]quinuclidinyl benzilate binding to Muscarinic acetylcholine receptor M2 in rat brain membrane
# Assay type: cell membranes
# pIC50 listing for each entry below
Convention used: pIC50 is expressed as -log10 of the molar concentration.

Consider the reported pIC50 for these compounds:
Cn1oc2c(c1=O)C[S+](C)CC2.[I-] (stereo not given); 3.96
COc1noc2c1C[S+](C)CC2.[I-] (stereo not given); 4.44
C#CCOc1noc2c1C[S+](C)CC2.[I-] (stereo not given); 5.59
COC(=O)C1=CCC[S+](C)C1.[I-] (stereo not given) [SULFOARECOLINE IODIDE]; 4.47
CCOC(=O)C1=CCC[S+](C)C1.[Cl-] (stereo not given); 4.66
COc1noc2c1CN(C)CC2; 4.42
CC(C)Oc1noc2c1C[S+](C)CC2.[I-] (stereo not given); 5.32

Kindly consider the entry below.
Please tell me: pIC50 of COc1noc2c1C[N+](C)(C)CC2.[I-] , system Muscarinic acetylcholine receptor M2 (Rattus norvegicus, UniProt P10980)? 4.13

###

# assay: Muscarinic agonist index (Ki in [3H]QNB / Ki in [3H]-OXO-M) was determined
# Assay type: functional
assay.endpoint: M-agonist index
Just the number.

COc1noc2c1C[S+](C)CC2.[I-] (stereo not given); 307
CC(C)Oc1noc2c1C[S+](C)CC2.[I-] (stereo not given); 20
CCOc1noc2c1C[S+](C)CC2.[I-] (stereo not given); 3.3
CCOC(=O)C1=CCC[S+](C)C1.[Cl-] (stereo not given); 387

Next, consider the following compound.
Can you look up the measured M-agonist index of COC(=O)C1=CCC[S+](C)C1.[I-] (stereo not given) [SULFOARECOLINE IODIDE] for me? 3930

###

# target.system: Muscarinic acetylcholine receptor
# assay: Inhibition of [3H]oxotremorine-M binding to rat brain membrane Muscarinic acetylcholine receptor
Param label: returns Met when IC50 < 0.04 µM, returns Not met otherwise, including exact equality.

CCOC(=O)C1=CCC[S+](C)C1.[Cl-] (stereo not drawn); Met
Cn1oc2c(c1=O)CSCC2; Not met
Cn1oc2c(c1=O)C[S+](C)CC2.[I-] (stereo not drawn); Not met
CCOc1noc2c1C[S+](C)CC2.[I-] (stereo not drawn); Not met
COC(=O)C1=CCC[S+](C)C1.[I-] (stereo not drawn) [SULFOARECOLINE IODIDE]; Met

Dear reviewer, please state whether COc1noc2c1CN(C)CC2 has IC50 strictly beneath 0.04 µM. Met

What do you have for COc1noc2c1C[N+](C)(C)CC2.[I-] ? Not met

###

# target.system: Muscarinic acetylcholine receptor M2 (Rattus norvegicus, UniProt P10980)
# Sequence (P10980 whole entry): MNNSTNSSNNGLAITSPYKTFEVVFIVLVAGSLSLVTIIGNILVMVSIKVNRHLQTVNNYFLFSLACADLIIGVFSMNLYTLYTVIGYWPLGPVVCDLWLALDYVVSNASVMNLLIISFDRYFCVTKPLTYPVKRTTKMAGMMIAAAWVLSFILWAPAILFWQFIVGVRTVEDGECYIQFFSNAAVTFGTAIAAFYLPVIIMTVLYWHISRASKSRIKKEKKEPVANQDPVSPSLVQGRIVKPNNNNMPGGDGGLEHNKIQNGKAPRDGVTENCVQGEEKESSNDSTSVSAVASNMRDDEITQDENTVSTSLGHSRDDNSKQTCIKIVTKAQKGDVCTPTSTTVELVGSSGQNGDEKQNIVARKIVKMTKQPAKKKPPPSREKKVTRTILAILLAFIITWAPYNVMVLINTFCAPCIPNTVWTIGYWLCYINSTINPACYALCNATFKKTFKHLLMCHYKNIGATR
# assay: Inhibition of [3H]quinuclidinyl benzilate binding to Muscarinic acetylcholine receptor M2 of rat heart
pIC50: −log10 of the molar value.
pIC50 vs 6: at or above is 1, below is 0.

Previously resolved entries follow.
Cn1oc2c(c1=O)C[S+](C)CC2.[I-] (stereo not given); 0
CCOC(=O)C1=CCC[S+](C)C1.[Cl-] (stereo not given); 0
COc1noc2c1C[N+](C)(C)CC2.[I-]; 0
C#CCOc1noc2c1C[S+](C)CC2.[I-] (stereo not given); 1

Hi team, for COC(=O)C1=CCC[S+](C)C1.[I-] (stereo not given) [SULFOARECOLINE IODIDE] , is the recorded pIC50 at or above 6? 0
